The entries below pair compounds with pIC50 values for Epidermal growth factor receptor (Homo sapiens, UniProt P00533), as found in several publications.
Please express pIC50 as -log10 of the molar concentration.

Illustrative cases are given below, each with its answer.
# Compound, pIC50
rows = [
    ("C#Cc1cc2c(Nc3ccc(OCc4cccc(F)c4)c(Cl)c3)ncnc2s1", 7.15),
    ("C[C@H](N)C#Cc1cc2c(Nc3ccc(OCc4cccc(F)c4)c(Cl)c3)ncnc2s1", 7.16),
    ("CCNC(=O)c1ccc2c(c1)/C=C/c1n[nH]c3cnc(cc13)-c1cnn(C)c1COCCO2", 6.80),
    ("CN(CCN(CCN1CCOCC1)CCN(C)/N=N/c1ccc2ncnc(Nc3cccc(Cl)c3)c2c1)/N=N/c1ccc2ncnc(Nc3cccc(Cl)c3)c2c1", 6.82),
    ("Fc1cccc(COc2ccc(Nc3ncnc4sc(C#C[C@H]5CCCN5)cc34)cc2Cl)c1", 6.96),
    ("OC(COc1ncnc2ccccc12)Cn1ccnc1 (configuration not stated)", 6.32),
]

Now turn to the next compound.
Write down the reported pIC50 (system: Epidermal growth factor receptor (Homo sapiens, UniProt P00533)) of CCN1CCN(CC(O)COc2ncnc3ccccc23)CC1 (configuration not stated) 6.34
